Overview of reported IC50 across a group of compounds:
# Test system: Plasmodium falciparum
# experimentSummary: Antimalarial activity against chloroquine-sensitive Plasmodium falciparum 3D7 after 72 hrs by MSF assay
# Format: functional, organism-based
# condition: 3D7, 72 h

{"compound": "C=C(c1ccc(F)cc1)C1COC(c2cc(C)c3oc(=O)c(C(=O)OCC)cc3c2)OO1 (stereo not drawn)", "comparisonOperator": ">", "IC50, µg/mL": 0.5}
{"compound": "C=C(c1ccc(F)cc1)C1COC(c2cc(C(C)CC)c3oc(=O)c(C(=O)OC)cc3c2)OO1 (stereo not drawn)", "comparisonOperator": "=", "IC50, µg/mL": 0.203}
{"compound": "C=C(c1ccc(F)cc1)C1COC(c2cc(C)c3oc(=O)c(C(=O)OC)cc3c2)OO1 (stereo not drawn)", "comparisonOperator": ">", "IC50, µg/mL": 0.5}
{"compound": "C=C(c1ccc(C)cc1)C1COC(c2cc(C(C)CC)c3oc(=O)c(C(=O)OCC)cc3c2)OO1 (stereo not drawn)", "comparisonOperator": "=", "IC50, µg/mL": 0.0393}
{"compound": "C=C(c1ccc(Br)cc1)C1COC(c2cc(C)c3oc(=O)c(C(=O)OCC)cc3c2)OO1 (stereo not drawn)", "comparisonOperator": "=", "IC50, µg/mL": 0.246}
{"compound": "C=C(c1ccc(C)cc1)C1COC(c2cc(C)c3oc(=O)c(C(=O)OCC)cc3c2)OO1 (stereo not drawn)", "comparisonOperator": "=", "IC50, µg/mL": 0.262}
{"compound": "CO[C@H]1O[C@@H]2O[C@@]3(C)CC[C@H]4[C@H](C)CC[C@@H]([C@H]1C)[C@@]24OO3 [ARTEMETHER]", "comparisonOperator": "=", "IC50, µg/mL": 0.0004}
{"compound": "C=C(c1ccc(C)cc1)C1COC(c2cc(C(C)CC)c3oc(=O)c(C(=O)OC)cc3c2)OO1 (stereo not drawn)", "comparisonOperator": "=", "IC50, µg/mL": 0.132}
